Organism: Rattus norvegicus
protocol: DrugMatrix - Regimen: Daily Repeat
Type: toxicity, organism-based, Sprague-Dawley
Set-up: regimen Daily Repeat, gender Male, age 6-8 weeks
measurementContext: in vivo, po, 0 mg/kg, 72 h, tissue Plasma, route oral GAVAGE, dose level Control, time 3 day, vehicle .5 % CMC
property: ALANINE AMINOTRANSFERASE (u/L)

INSERT INTO measurements (compound, reported) VALUES
  ('CC(C)Cc1ccc([C@H](C)C(=O)O)cc1', 41),
  ('NC(=O)NC(=O)Cc1ccccc1 [PHENACEMIDE]', 48.17),
  ('CCN(CC)CCNC(=O)c1cc(Cl)c(N)cc1OC [METOCLOPRAMIDE]', 39.33),
  ('Nc1ccc(C(=O)O)c(O)c1', 36.5),
  ('CC(C)(C#N)c1cc(Cn2cncn2)cc(C(C)(C)C#N)c1', 53),
  ('COc1cc(/C=C/C(=O)O)ccc1O [FERULATE]', 45.33),
  ('NCC(CC(=O)O)c1ccc(Cl)cc1 (stereo not given)', 49.67),
  ('Cc1cc2c(s1)Nc1ccccc1N=C2N1CCN(C)CC1', 47.67),
  ('CN(C)CCOC(c1ccccc1)c1ccccc1.Cn1c(=O)c2[nH]c(Cl)nc2n(C)c1=O [DIMENHYDRINATE]', 54.83),
  ('CCOc1cc(N)c(Cl)cc1C(=O)NCC1CN(Cc2ccc(F)cc2)CCO1 (stereo not given) [MOSAPRIDE]', 49.67);

###

Organism: Rattus norvegicus
protocol: DrugMatrix - Regimen: Daily Repeat
Type: toxicity, organism-based, Sprague-Dawley
Parameters: regimen Daily Repeat, gender Male, age 6-8 weeks
measurementContext: in vivo, po, 0 mg/kg, 120 h, tissue Plasma, route oral GAVAGE, dose level Control, time 5 day, vehicle .5 % CMC
Listing: PHOSPHORUS of selected compounds
property: PHOSPHORUS (mg/dL)

INSERT INTO results (compound, property, reported) VALUES
  ('Cl.NC[C@H]1CC[C@H](C(=O)Oc2ccc(CCC(=O)O)cc2)CC1 [CETRAXATE HYDROCHLORIDE]', 'PHOSPHORUS', 12.45),
  ('CCN1CCCC1CNC(=O)c1cc(S(N)(=O)=O)ccc1OC (stereo not given) [SULPIRIDE]', 'PHOSPHORUS', 11.38),
  ('Nc1ccc(C(=O)O)c(O)c1 [AMINOSALICYLIC ACID]', 'PHOSPHORUS', 9.53),
  ('O=C(O)CCc1nc(-c2ccccc2)c(-c2ccccc2)o1 [OXAPROZIN]', 'PHOSPHORUS', 11.38),
  ('NC(=O)CN1CCCC1=O', 'PHOSPHORUS', 12.3);

###

Species on record: Rattus norvegicus
protocol: DrugMatrix - Regimen: Daily Repeat
Format: toxicity, organism-based, Sprague-Dawley
Design: regimen Daily Repeat, gender Male, age 6-8 weeks
measurementContext: in vivo, po, 0 mg/kg, 120 h, tissue Plasma, route oral GAVAGE, dose level Control, time 5 day, vehicle 100 % WATER
property: ALBUMIN (G/DL)

INSERT INTO measurements (compound, reported) VALUES
  ('CCN(CC)C(=S)SSC(=S)N(CC)CC', 4.08),
  ('NN [HYDRAZINE]', 4.3),
  ('Cc1cn([C@H]2C=C[C@@H](CO)O2)c(=O)[nH]c1=O', 4.07);

###

Listing: MEAN CORPUSCULAR HEMOGLOBIN of selected compounds
Species: Rattus norvegicus
protocol: DrugMatrix - Regimen: Daily Repeat
Format: toxicity, organism-based, Sprague-Dawley
Set-up: regimen Daily Repeat, gender Male, age 6-8 weeks
measurementContext: in vivo, po, 0 mg/kg, 72 h, tissue Blood, route oral GAVAGE, dose level Control, time 3 day, vehicle .5 % CMC
property: MEAN CORPUSCULAR HEMOGLOBIN (pg)

INSERT INTO assay_data (compound, reported) VALUES
  ('CC(C)(C#N)c1cc(Cn2cncn2)cc(C(C)(C)C#N)c1', 24.78),
  ('Nc1ccc(C(=O)O)c(O)c1', 23.48),
  ('NC(=O)CN1CCCC1=O', 25.1),
  ('COc1cc(NC(C)CCCN)c2ncccc2c1 (centres undefined)', 23.58),
  ('Cl.NC[C@H]1CC[C@H](C(=O)Oc2ccc(CCC(=O)O)cc2)CC1 [CETRAXATE HYDROCHLORIDE]', 23.73),
  ('CC(C)NCC(O)COc1ccc(CC(N)=O)cc1 (centres undefined)', 24.1),
  ('CC(=O)Nc1ccc2c(c1)Cc1ccccc1-2', 24.6),
  ('COc1cc(/C=C/C(=O)O)ccc1O [FERULATE]', 23.73),
  ('CN(C)CCC=C1c2ccccc2COc2ccccc21 [DOXEPIN]', 24.1);

###

Species: Rattus norvegicus
protocol: DrugMatrix - Regimen: Daily Repeat
Type: toxicity, organism-based, Sprague-Dawley
Design: regimen Daily Repeat, gender Male, age 6-8 weeks
measurementContext: in vivo, po, 1500 mg/kg, 120 h, tissue Blood, route oral GAVAGE, dose level High, time 5 day, vehicle .5 % CMC
Listing: MEAN CORPUSCULAR VOLUME of selected molecules
property: MEAN CORPUSCULAR VOLUME (fL)

INSERT INTO results (molecule, reported) VALUES
  ('CC[C@H]1OC(=O)[C@H](C)[C@@H](O[C@H]2C[C@@](C)(OC)[C@@H](O)[C@H](C)O2)[C@H](C)[C@@H](O[C@@H]2O[C@H](C)C[C@H](N(C)C)[C@H]2O)[C@](C)(O)C[C@@H](C)C(=O)[C@H](C)[C@@H](O)[C@]1(C)O [ERYTHROMYCIN]', 60.83),
  ('COc1cc(/C=C/C(=O)O)ccc1O [FERULATE]', 60.37),
  ('O=C(O)CCc1nc(-c2ccccc2)c(-c2ccccc2)o1 [OXAPROZIN]', 63),
  ('Cc1ccc(S(=O)(=O)NC(=O)NN2CCCCCC2)cc1 [TOLAZAMIDE]', 61.93),
  ('COc1ccc(Cl)cc1C(=O)NCCc1ccc(S(=O)(=O)NC(=O)NC2CCCCC2)cc1 [GLYBURIDE]', 60.3);

###

Listing: CREATINE PHOSPHOKINASE of selected compounds
Organism: Rattus norvegicus
protocol: DrugMatrix - Regimen: Daily Repeat
Assay type: toxicity, organism-based, Sprague-Dawley
Design: regimen Daily Repeat, gender Male, age 6-8 weeks
measurementContext: in vivo, po, 0 mg/kg, 120 h, tissue Plasma, route oral GAVAGE, dose level Control, time 5 day, vehicle 100 % WATER
property: CREATINE PHOSPHOKINASE (u/L)

INSERT INTO assay_data (compound, property, unitofmeasurement, reported) VALUES
  ('CCN(CC)C(=S)SSC(=S)N(CC)CC', 'CREATINE PHOSPHOKINASE', 'u/L', 268.33),
  ('Cc1cn([C@H]2C=C[C@@H](CO)O2)c(=O)[nH]c1=O [STAVUDINE]', 'CREATINE PHOSPHOKINASE', 'u/L', 248.33),
  ('CN1C(=O)OC(C)(C)C1=O [TRIMETHADIONE]', 'CREATINE PHOSPHOKINASE', 'u/L', 130.67),
  ('CC(Cl)(Cl)Cl [TRICHLOROETHANE]', 'CREATINE PHOSPHOKINASE', 'u/L', 255.33),
  ('NN [HYDRAZINE]', 'CREATINE PHOSPHOKINASE', 'u/L', 533.33),
  ('C1CCN2C[C@@H]3C[C@@H](CN4CCCC[C@@H]34)[C@H]2C1 [SPARTEINE]', 'CREATINE PHOSPHOKINASE', 'u/L', 255.33),
  ('Cc1cc(C(C)(C)C)c(O)c(C)c1CC1=NCCN1 [OXYMETAZOLINE]', 'CREATINE PHOSPHOKINASE', 'u/L', 323.17),
  ('C[N+](C)(C)CCOC(N)=O.[Cl-] [CARBACHOL]', 'CREATINE PHOSPHOKINASE', 'u/L', 248.33),
  ('CCC1(c2ccccc2)C(=O)NC(=O)NC1=O [PHENOBARBITAL]', 'CREATINE PHOSPHOKINASE', 'u/L', 237.17);

###

Organism: Rattus norvegicus
protocol: DrugMatrix - Regimen: Daily Repeat
Type: toxicity, organism-based, Sprague-Dawley
Set-up: regimen Daily Repeat, gender Male, age 6-8 weeks
measurementContext: in vivo, po, 0 mg/kg, 72 h, tissue Blood, route oral GAVAGE, dose level Control, time 3 day, vehicle 100 % WATER
Listing: ABSOLUTE LYMPHOCYTE of selected compounds
property: ABSOLUTE LYMPHOCYTE

INSERT INTO assay_data (compound, reported) VALUES
  ('C1CCN2C[C@@H]3C[C@@H](CN4CCCC[C@@H]34)[C@H]2C1 [SPARTEINE]', '12090.17 CELLS/uL'),
  ('CCN(CC)C(=S)SSC(=S)N(CC)CC', '11823.5 CELLS/uL'),
  ('CCC1(c2ccccc2)C(=O)NC(=O)NC1=O [PHENOBARBITAL]', '9305.83 CELLS/uL'),
  ('CC(Cl)(Cl)Cl [TRICHLOROETHANE]', '12090.17 CELLS/uL'),
  ('Cc1cc(C(C)(C)C)c(O)c(C)c1CC1=NCCN1 [OXYMETAZOLINE]', '12677.83 CELLS/uL'),
  ('C[N+](C)(C)CCOC(N)=O.[Cl-] [CARBACHOL]', '8482.5 CELLS/uL'),
  ('NN [HYDRAZINE]', '12371.67 CELLS/uL'),
  ('Cc1cn([C@H]2C=C[C@@H](CO)O2)c(=O)[nH]c1=O [STAVUDINE]', '8482.5 CELLS/uL');
